Target: Factor X (FX), P00742
Sequence (P00742 whole entry, looked up): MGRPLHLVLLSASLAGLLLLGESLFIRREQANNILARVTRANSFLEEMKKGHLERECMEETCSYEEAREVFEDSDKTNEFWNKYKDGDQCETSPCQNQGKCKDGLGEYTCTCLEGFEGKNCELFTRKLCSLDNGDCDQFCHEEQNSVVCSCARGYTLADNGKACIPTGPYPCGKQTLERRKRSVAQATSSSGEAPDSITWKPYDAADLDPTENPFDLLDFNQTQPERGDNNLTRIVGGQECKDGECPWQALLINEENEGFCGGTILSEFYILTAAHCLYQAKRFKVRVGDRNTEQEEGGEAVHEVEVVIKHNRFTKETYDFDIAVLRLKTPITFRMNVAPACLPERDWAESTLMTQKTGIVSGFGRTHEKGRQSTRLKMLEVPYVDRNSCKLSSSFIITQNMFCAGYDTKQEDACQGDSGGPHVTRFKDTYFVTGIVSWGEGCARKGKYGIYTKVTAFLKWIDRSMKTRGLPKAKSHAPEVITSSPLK
% of WT kcat/KM by entry:
Enter your answer as a number in %; do not include the unit.

INSERT INTO measurements (protein, property_label, measurement_units, reported_result) VALUES
  ('FIXa-K247N/N249S/R318Y/T343R/R403E (protein) chain 1: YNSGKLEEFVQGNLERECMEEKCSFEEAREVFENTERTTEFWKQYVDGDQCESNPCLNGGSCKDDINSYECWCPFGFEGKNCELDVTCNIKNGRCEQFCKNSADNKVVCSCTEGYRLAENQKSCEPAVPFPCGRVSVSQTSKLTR chain 2: VVGGEDAKPGQFPWQVVLNGKVDAFCGGSIVNEKWIVTAAHCVETGVKITVVAGEHNIEETEHTEQNRSVIRIIPHHNYNAAINKYNHDIALLELDEPLVLNSYVTPICIADKEYTNIFLKFGSGYVSGWGRVFHKGYSALVLQYLRVPLVDRATCLRSTKFRIYNNMFCAGFHEGGRDSCQGDSGGPHVTEVEGTSFLTGIISWGEECAMKGKYGIYTKVSEYVNWIKEKTKLT', '% of WT kcat/KM', '%', 84);

Now for a further protein.
Form field % of WT kcat/KM, entry FIXa variant D203N/F205T/R318Y (protein) chain 1: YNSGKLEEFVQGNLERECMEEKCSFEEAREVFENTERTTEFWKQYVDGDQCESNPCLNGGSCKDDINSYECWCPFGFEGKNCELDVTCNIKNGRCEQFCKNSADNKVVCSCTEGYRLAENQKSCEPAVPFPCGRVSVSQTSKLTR chain 2: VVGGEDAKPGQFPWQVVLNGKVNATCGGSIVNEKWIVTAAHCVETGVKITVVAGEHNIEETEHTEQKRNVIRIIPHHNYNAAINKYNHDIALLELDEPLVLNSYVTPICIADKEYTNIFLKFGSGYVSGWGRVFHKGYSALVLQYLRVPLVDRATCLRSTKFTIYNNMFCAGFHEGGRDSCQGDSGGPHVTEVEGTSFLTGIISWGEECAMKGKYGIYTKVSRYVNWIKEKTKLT : 44
